- assay-summary: Probe fluorescence ratio response to linolenic acid relative to ADIFAB2
- Type: binding
- test-context: response relative to ADIFAB2
Exercise: state measured DR/DR LNA for each of the molecules provided.
Numbers only.

DR/DR LNA in this record for 23Y, 72A (protein, listed as Rattus norvegicus, PEPTIDE (1)...(131) wild-type rat intestinal fatty acid binding protein) AFDGTWKVDRNENYEKFMEKMGYNVVKRKLGAHDNLKLTITQEGNKFTVKESSNFRNIDVVFELGVDFAYSAADGTELTGTWTMEGNKLVGKFKRVDNGKELIAVREISGNELIQTYTYEGVEAKRIFKKE : 0.443

Note: attention shifts to another entry.
Per the records, this molecule ( 74E 72A 73F (protein, listed as Rattus norvegicus, PEPTIDE (1)...(131) wild-type rat intestinal fatty acid binding protein) AFDGTWKVDRNENYEKFMEKMGINVVKRKLGAHDNLKLTITQEGNKFTVKESSNFRNIDVVFELGVDFAYSAFEGTELTGTWTMEGNKLVGKFKRVDNGKELIAVREISGNELIQTYTYEGVEAKRIFKKE ) has DR/DR LNA equal to 1.558
